Each record here notes measured IC50.
# System: MCF-7 cells
# method: Breast cancer cell viability assay (CellTiter-Glo, 5 days)
# Format: cell-based
# protocol-conditions: Homo sapiens, MCF7, 120 h, 5 days' compound exposure

Observe how each entry below is paired with its result.
smiles-notation | endpoint | result
CC/C(=C(/c1ccc(/C=C/C(=O)O)cc1)c1ccc2[nH]ncc2c1)c1ccc(-c2ccccn2)cc1 | IC50 | > 100 nM
CCOC(=O)n1ncc2cc(/C(=C(\CC)c3ccc(F)cc3Cl)c3ccc(/C=C/C(=O)O)cc3)ccc21 | IC50 | ≤ 100 nM
CC/C(=C(/c1ccc(/C=C/C(=O)NC)cc1)c1ccc2scnc2c1)c1ccccc1 | IC50 | ≤ 100 nM
CC/C(=C(/c1ccc(/C=C/C(=O)O)cc1)c1ccc2[nH]ncc2c1)c1cccc(OCc2cccnc2)c1 | IC50 | ≤ 100 nM
CC/C(=C(/c1ccc(/C=C/C(=O)O)cc1)c1ccc2[nH]ncc2c1)c1cccc(Oc2cncnc2)c1 | IC50 | > 100 nM
CC/C(=C(/c1ccc(/C=C/C(=O)O)cc1)c1ccc2[nH]ncc2c1)c1ccc(Oc2ccncc2)cc1 | IC50 | ≤ 100 nM
CC/C(=C(/c1ccc(/C=C/C(=O)O)cc1)c1ccc2[nH]ncc2c1)c1ccc(Oc2cnccn2)cc1 | IC50 | ≤ 100 nM
CC/C(=C(/c1ccc(/C=C/C(=O)O)cc1)c1ccc2[nH]ncc2c1)c1ccc2c(c1)OCO2 | IC50 | ≤ 100 nM
CC/C(=C(/c1ccc(/C=C/C(=O)O)cc1)c1ccc2[nH]ncc2c1)c1cccc(N2CCOCC2)c1 | IC50 | > 100 nM
CCCCCOc1cccc(/C(CC)=C(\c2ccc(/C=C/C(=O)O)cc2)c2ccc3[nH]ncc3c2)c1 | IC50 | ≤ 100 nM

# input Note IC50 for the compound shown: CC/C(=C(/c1ccc(/C=C/C(=O)O)cc1)c1ccc2nccn2c1)c1ccc(F)cc1C(F)(F)F
# output ≤ 100 nM

# input Return value of IC50 for input CC/C(=C(/c1ccc(/C=C/C(=O)O)cc1)c1ccc2[nH]ncc2c1F)c1cccc(OC2CCCCC2)c1 , no commentary.
# output ≤ 100 nM

# input Consider the compound CC/C(=C(/c1ccc(/C=C/C(=O)O)cc1)c1ccc2nn(C(F)F)cc2c1)c1ccc(F)cc1Cl and give its recorded IC50.
# output ≤ 100 nM

# input # return recorded IC50 for input CC/C(=C(/c1ccc(/C=C/C(=O)O)cc1)c1ccnc2[nH]ncc12)c1ccccc1
# output > 100 nM

# input Respond only with IC50 recorded for CC/C(=C(/c1ccc(/C=C/C(=O)O)cc1)c1ccc2[nH]ncc2n1)c1ccccc1
# output ≤ 100 nM
